Source listed as ChEMBL document CHEMBL3233001.

Biological target: Integrin alpha-V/beta-6 (Homo sapiens, UniProt P06756+P18564)
Assay: Inhibition of LAP binding to human alphavbeta6 integrin receptor after 1 hr by competitive solid-phase binding ELISA
pIC50: −log10 of the molar value.
Metric: pIC50

compound_string=COc1ccnc(NCCCOc2ccc(C[C@@H](CC(=O)O)NC(=O)c3ccc(OC(C)C)cc3)cc2)c1 experimental_value=7.70

###

Molecular target: Integrin alpha-5/beta-1 (Homo sapiens, UniProt P05556+P08648)
Test: Inhibition of fibronectin binding to human alpha5beta1 integrin receptor after 1 hr by competitive solid-phase binding ELISA
pIC50: −log10 of the molar value.
Metric: pIC50

compound_string=COc1ccnc(NCCCOc2ccc(C[C@@H](CC(=O)O)NC(=O)c3ccc(OC(C)C)cc3)cc2)c1 metric=pIC50 comparison_operator== experimental_value=6.90
compound_string=COc1ccnc(NCCCOc2ccc(C[C@@H](CC(=O)O)NS(=O)(=O)c3ccc(C)cc3)cc2)c1 metric=pIC50 comparison_operator== experimental_value=6.97
compound_string=Cc1cccc(NCCCOc2ccc(C[C@@H](CC(=O)O)NC(=O)c3ccccc3)cc2)n1 metric=pIC50 comparison_operator=< experimental_value=5.00
compound_string=COc1ccnc(NCCCOc2ccc(C[C@@H](CC(=O)NO)NS(=O)(=O)c3ccc(C)cc3)cc2)c1 metric=pIC50 comparison_operator=< experimental_value=5.00
compound_string=COc1ccnc(NCCCOc2ccc(C[C@@H](CC(=O)NO)NC(=O)c3ccc(OC(C)C)cc3)cc2)c1 metric=pIC50 comparison_operator=< experimental_value=5.00
compound_string=COc1ccnc(NCCCOc2ccc(C[C@@H](CC(=O)O)NC(=O)c3ccc(F)cc3)cc2)c1 metric=pIC50 comparison_operator== experimental_value=7.19

###

Target: Integrin alpha-V/beta-5 (Homo sapiens, UniProt P06756+P18084)
Test: Inhibition of vitronectin binding to alphavbeta5 integrin receptor (unknown origin) after 1 hr by competitive solid-phase binding ELISA
pIC50: −log10 of the molar value.
Metric: pIC50

compound_string=COc1ccnc(NCCCOc2ccc(C[C@@H](CC(=O)O)NC(=O)c3ccc(OC(C)C)cc3)cc2)c1 metric=pIC50 experimental_value=6.64
